# IC50 measurements, system: Pol Theta (1-894) (Homo sapiens (Human))
# Sequence (O75417 1-894): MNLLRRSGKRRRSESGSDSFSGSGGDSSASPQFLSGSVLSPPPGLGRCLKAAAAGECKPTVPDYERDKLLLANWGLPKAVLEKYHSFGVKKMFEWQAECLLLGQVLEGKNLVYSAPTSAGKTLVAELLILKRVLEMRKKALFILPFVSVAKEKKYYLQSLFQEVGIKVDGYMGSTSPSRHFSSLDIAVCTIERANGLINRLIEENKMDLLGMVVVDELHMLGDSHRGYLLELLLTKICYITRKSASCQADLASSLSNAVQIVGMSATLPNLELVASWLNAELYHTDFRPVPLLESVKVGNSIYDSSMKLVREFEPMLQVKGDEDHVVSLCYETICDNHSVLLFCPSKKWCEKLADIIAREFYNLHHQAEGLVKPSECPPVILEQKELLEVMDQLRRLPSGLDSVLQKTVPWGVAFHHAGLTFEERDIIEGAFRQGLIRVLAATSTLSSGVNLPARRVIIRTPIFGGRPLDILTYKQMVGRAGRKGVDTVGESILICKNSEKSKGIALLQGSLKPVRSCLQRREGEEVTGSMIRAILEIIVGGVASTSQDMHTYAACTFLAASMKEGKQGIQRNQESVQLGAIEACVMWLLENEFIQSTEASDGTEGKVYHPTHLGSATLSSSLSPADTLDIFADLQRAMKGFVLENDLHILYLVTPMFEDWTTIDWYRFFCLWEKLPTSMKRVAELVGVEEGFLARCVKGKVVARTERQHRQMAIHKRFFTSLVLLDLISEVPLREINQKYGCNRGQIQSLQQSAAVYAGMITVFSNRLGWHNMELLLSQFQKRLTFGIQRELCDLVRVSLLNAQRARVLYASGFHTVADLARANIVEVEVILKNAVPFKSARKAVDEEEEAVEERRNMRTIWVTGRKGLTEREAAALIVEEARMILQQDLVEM

| Molecule | IC50 (nM) |
| --- | --- |
| COc1ccc(C#N)cc1-c1nc(C#N)ccc1C(=O)Nc1nc2ccc(-c3ccc(Cl)cc3)nc2s1 [Example 7] | 92 |
| COc1ccc(C#N)cc1-c1cc(C)ncc1C(=O)Nc1nc2ccc(-c3ccc(OCCO)cc3)nc2s1 [Example 122] | 14 |
| COc1ccccc1-c1cnncc1C(=O)Nc1nc2ccc(-c3c(C)cc(C#N)cc3C)nc2s1 [Example 148] | 8.4 |
| COc1ccc(S(C)(=O)=O)cc1-c1cc(C)ncc1C(=O)Nc1nc2ccc(-c3ccc(C#N)cc3)nc2s1 [Example 52] | 8.4 |
| COc1ccccc1-c1cnncc1C(=O)Nc1nc2ccc(-c3ccc(NC(C)=O)cc3)nc2s1 [Example 16] | 8.2 |
